Test system: antibodies in sera from HCV-seropositive donors
Procedure Summary: ELISA with HCV antibody-positive sera (biotinylated peptides on streptavidin- or avidin-coated plates, unbiotinylated peptides coated directly)
Assay type: binding, human
Test Parameters: Table 12; serum 8388; biotinylated 20-mers
Ends that are not written are not given here.
Decide by PEPTIDE ELISA (O.D.): equal to or exceeding 2 means yes, less means no.

ETWKKPDYEPPVVHGCPLPP : yes
IIPDREVLYREFDEMEECSQ : yes
SQHLPYIEQGMMLAEQFKQK : no
PQRKTKRNTNRRPQDVKFPG : yes
RNTNRRPQDVKFPGGGQIVG : yes
TRKTSERSQPRGRRQPIPKV : yes

Kindly consider the entry below.
Q: Answer whether PEPTIDE ELISA (O.D.) of Leu-Arg-Lys-Ser-Arg-Arg-Phe-Ala-Gln-Ala-Leu-Pro-Val-Trp-Ala-Arg-Pro-Asp-Tyr-Asn [Peptide XVI] (LRKSRRFAQALPVWARPDYN; printed: Leu-Arg-Lys-Ser-Arg-Arg-Phe-Ala-Gln-Ala-Leu-Pro-Val-Trp-Ala-Arg-Pro-Asp-Tyr-Asn) is greater than or equal to 2.
Result: no
